Where do these numbers come from? They come from patent US20250325517A1.

- Assay summary: Phase 1 crossover PK study: oral solution fed/fasted vs IV infusion in healthy subjects
- Assay type: in vivo, human
- Particulars: human, plasma, po, 3.3 mg/kg, human, 3.3 mg/kg oral solution, fasted state; read-out: mean Cmax (arithmetic mean)
Property: Cmax (ng/mL)

[[record]]
compound = "Cn1cc(C2=C(c3coc4ccc(F)cc34)C(=O)NC2=O)c2cc3c(cc21)OCO3 [elraglusib]"
unit_of_measure = "ng/mL"
experimental_result = 172


====

- Assay summary: Phase 1 crossover PK study: oral solution fed/fasted vs IV infusion in healthy subjects
- Type: in vivo, human
- Particulars: human, plasma, po, 3.3 mg/kg, oral 3.3 mg/kg fed state, human plasma; read-out: AUClast GMean
Property: AUC(0-t) (ng·h/mL)

[[record]]
compound = "Cn1cc(C2=C(c3coc4ccc(F)cc34)C(=O)NC2=O)c2cc3c(cc21)OCO3 [elraglusib]"
experimental_result = 4250


====

- Assay summary: Phase 1 crossover PK study: oral solution fed/fasted vs IV infusion in healthy subjects
- Format: in vivo, human
- Particulars: human, plasma, po, 3.3 mg/kg, oral 3.3 mg/kg, Fasted; read-out: AUC∞ LS Means
Property: AUC(0-inf) (ng·h/mL)

[[record]]
molecule = "Cn1cc(C2=C(c3coc4ccc(F)cc34)C(=O)NC2=O)c2cc3c(cc21)OCO3 [elraglusib]"
property = "AUC(0-inf)"
unit_of_measure = "ng·h/mL"
experimental_result = 1480


====

- Assay summary: Phase 1 crossover PK study: oral solution fed/fasted vs IV infusion in healthy subjects
- Format: in vivo, human
- Particulars: human, plasma, po, 3.3 mg/kg, oral 3.3 mg/kg fasted state, human plasma; read-out: Cmax Median
- Description: This pharmacokinetic (PK) study in healthy subjects was conducted to characterize and compare the PK parameters in plasma following a single intravenous (IV) dose of Elraglusib Injection, Elraglusib Oral Solution after fasting, and Elraglusib Oral Solution after a high-fat meal (fed). […] PK parameters including AUC, Cmax, Tmax, and t1/2 were analyzed by standard non-compartmental analysis (NCA) methods following each of the elraglusib doses. […]
Property: Cmax (ng/mL)

[[record]]
smiles = "Cn1cc(C2=C(c3coc4ccc(F)cc34)C(=O)NC2=O)c2cc3c(cc21)OCO3"
experimental_result = 169


====

- Assay summary: Phase 1 crossover PK study: oral solution fed/fasted vs IV infusion in healthy subjects
- Assay type: in vivo, human
- Particulars: human, plasma, iv, 3.3 mg/kg, IV infusion 3.3 mg/kg, human plasma; read-out: AUC72 Arithmetic Mean
Property: AUC (ng·h/mL)

[[record]]
smiles = "Cn1cc(C2=C(c3coc4ccc(F)cc34)C(=O)NC2=O)c2cc3c(cc21)OCO3"
experimental_result = 7840


====

- Assay summary: Phase 1 crossover PK study: oral solution fed/fasted vs IV infusion in healthy subjects
- Assay type: in vivo, human
- Particulars: human, plasma, iv, 3.3 mg/kg, IV infusion 3.3 mg/kg, human plasma; read-out: AUC24 GMean
Property: AUC (ng·h/mL)

[[record]]
smiles = "Cn1cc(C2=C(c3coc4ccc(F)cc34)C(=O)NC2=O)c2cc3c(cc21)OCO3"
property = "AUC"
experimental_result = 6730


====

- Assay summary: Phase 1 crossover PK study: oral solution fed/fasted vs IV infusion in healthy subjects
- Assay type: in vivo, human
- Particulars: human, plasma, po, 3.3 mg/kg, oral 3.3 mg/kg fed state, human plasma; read-out: AUC96 Arithmetic Mean
Property: AUC (ng·h/mL)

[[record]]
molecule = "Cn1cc(C2=C(c3coc4ccc(F)cc34)C(=O)NC2=O)c2cc3c(cc21)OCO3 [elraglusib]"
property = "AUC"
experimental_result = 4890

